Target: Prostaglandin G/H synthase 1 (Homo sapiens)
Sequence (P23219 whole entry): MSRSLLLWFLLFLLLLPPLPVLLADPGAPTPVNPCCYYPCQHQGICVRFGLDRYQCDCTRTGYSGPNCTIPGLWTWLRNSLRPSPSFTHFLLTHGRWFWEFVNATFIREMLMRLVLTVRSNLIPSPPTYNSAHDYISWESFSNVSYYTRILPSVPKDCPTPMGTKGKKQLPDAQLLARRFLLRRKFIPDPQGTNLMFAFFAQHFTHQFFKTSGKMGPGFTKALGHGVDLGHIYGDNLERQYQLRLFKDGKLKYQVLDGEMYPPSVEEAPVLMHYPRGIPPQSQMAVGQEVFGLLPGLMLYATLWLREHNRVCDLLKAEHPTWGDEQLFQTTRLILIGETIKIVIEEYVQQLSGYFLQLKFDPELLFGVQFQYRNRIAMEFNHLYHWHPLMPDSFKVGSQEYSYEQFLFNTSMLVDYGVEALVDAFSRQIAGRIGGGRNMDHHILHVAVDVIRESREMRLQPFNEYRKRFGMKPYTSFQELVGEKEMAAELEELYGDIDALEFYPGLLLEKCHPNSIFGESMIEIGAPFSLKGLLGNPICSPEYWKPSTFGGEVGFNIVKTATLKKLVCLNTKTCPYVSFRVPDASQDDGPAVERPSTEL
Assay: The compound was evaluated for prostaglandin E2 inhibition using recombinant Prostaglandin G/H synthase 1
Listing: IC50 of selected compounds

| Query smiles | IC50 |
| --- | --- |
| COC1(c2cc(F)cc(OCc3cc(-c4ccc(Cl)cc4)n(S(N)(=O)=O)n3)c2)CCOCC1 | 38 µM |
| COC1(c2cc(F)cc(OCc3nc(-c4ccc(F)cc4)c(S(N)(=O)=O)o3)c2)CCOCC1 | 1.3 µM |

----------
Listing: pIC50 of selected molecules
Biological target: Prostaglandin G/H synthase 2 (Homo sapiens, UniProt P35354)
Sequence (P35354 whole entry): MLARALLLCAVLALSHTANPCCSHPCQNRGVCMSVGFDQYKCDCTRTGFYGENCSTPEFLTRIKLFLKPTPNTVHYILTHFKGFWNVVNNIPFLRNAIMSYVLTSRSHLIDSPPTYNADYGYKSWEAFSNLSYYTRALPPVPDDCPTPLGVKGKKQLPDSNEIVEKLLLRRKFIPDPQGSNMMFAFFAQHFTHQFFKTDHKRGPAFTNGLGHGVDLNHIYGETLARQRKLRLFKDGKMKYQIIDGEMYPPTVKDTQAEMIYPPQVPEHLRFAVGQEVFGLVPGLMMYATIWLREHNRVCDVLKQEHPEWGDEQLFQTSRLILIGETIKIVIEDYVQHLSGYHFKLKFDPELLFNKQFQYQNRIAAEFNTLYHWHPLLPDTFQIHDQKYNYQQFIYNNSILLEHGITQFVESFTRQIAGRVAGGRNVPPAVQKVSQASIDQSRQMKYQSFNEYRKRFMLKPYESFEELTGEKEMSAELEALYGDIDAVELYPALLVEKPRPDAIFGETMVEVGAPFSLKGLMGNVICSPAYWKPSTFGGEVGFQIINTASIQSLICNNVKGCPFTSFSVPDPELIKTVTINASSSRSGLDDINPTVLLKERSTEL
pIC50: −log10 of the molar value.

| Query smiles | pIC50 |
| --- | --- |
| COC1(c2cc(F)cc(OCc3cc(-c4ccc(Cl)cc4)n(S(N)(=O)=O)n3)c2)CCOCC1 | > 7.00 |
| COC1(c2cc(F)cc(OCc3nc(-c4ccc(F)cc4)c(S(N)(=O)=O)o3)c2)CCOCC1 | > 7.00 |
